Target: androgen receptor (Homo sapiens (Human), UniProt P10275)
Sequence (P10275 whole entry, species assumed): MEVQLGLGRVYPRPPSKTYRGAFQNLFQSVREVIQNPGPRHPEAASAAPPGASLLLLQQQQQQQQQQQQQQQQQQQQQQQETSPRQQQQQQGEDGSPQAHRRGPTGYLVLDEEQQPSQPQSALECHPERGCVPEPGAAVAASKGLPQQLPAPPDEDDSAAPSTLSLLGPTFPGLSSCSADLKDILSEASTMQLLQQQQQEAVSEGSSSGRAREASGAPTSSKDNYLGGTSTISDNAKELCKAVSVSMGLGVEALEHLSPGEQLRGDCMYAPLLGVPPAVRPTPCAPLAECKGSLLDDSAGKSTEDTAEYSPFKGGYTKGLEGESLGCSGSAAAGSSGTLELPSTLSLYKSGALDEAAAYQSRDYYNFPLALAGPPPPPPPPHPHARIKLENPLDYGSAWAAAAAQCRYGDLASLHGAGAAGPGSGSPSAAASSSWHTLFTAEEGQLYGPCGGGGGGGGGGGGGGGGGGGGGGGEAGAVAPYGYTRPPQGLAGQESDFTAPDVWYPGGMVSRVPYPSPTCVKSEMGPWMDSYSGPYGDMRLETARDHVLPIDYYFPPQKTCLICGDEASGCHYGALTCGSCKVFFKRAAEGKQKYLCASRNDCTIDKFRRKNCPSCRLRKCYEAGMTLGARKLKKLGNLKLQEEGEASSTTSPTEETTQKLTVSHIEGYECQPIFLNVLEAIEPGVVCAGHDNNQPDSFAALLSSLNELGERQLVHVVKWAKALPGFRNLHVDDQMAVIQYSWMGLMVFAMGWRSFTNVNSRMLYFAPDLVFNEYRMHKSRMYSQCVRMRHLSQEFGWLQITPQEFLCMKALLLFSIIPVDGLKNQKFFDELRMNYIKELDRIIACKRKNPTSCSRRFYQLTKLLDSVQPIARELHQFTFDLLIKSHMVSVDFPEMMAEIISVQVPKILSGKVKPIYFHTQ
Assay: Androgenic/antiandrogenic action by transactivation test (PC3 reporter cells)
Format: cell-based
Conditions: read-out: Androgen receptor Agonism efficacy
Below is a list of entries, each paired with its recorded Emax value.

C=C[C@@H]1CC2=CC(=O)CC[C@@H]2[C@H]2CC[C@@]3(CC)[C@@H](CC[C@@]34C=CCO4)[C@@H]21; 88.8%
CC[C@@H]1CC2=CC(=O)CC[C@@H]2[C@H]2CC[C@@]3(C)[C@@H](CC[C@@]34C=CCO4)[C@H]12; 62.3%
C=C[C@@H]1CC2=CC(=O)CC[C@@H]2[C@H]2CC[C@@]3(C)[C@@H](CC[C@@]34C=CCO4)[C@@H]21; 86.8%

// next item, Emax requested
Task: // map CC[C@]12CC[C@H]3[C@@H](C[C@@H](CO)C4=CC(=O)CC[C@@H]43)[C@@H]1CC[C@@]21C=CCO1 to recorded Emax (system: androgen receptor (Homo sapiens (Human), UniProt P10275))
Output: 5%
